# target_under_test: Factor X (FX), P00742
# Sequence (P00742 whole entry, looked up): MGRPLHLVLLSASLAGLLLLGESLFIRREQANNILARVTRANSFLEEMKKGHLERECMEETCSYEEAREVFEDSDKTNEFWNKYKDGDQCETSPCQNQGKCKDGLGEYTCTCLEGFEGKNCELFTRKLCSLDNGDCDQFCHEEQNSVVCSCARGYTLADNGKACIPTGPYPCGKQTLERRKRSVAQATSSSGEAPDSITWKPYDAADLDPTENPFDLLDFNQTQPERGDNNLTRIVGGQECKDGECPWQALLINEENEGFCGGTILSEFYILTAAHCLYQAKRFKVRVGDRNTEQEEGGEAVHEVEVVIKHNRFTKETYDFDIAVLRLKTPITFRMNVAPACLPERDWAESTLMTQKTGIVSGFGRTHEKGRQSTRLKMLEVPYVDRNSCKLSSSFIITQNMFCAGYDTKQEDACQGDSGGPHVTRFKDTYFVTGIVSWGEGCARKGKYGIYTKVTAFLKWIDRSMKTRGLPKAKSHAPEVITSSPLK
assay_metric: kcat (s⁻¹)
Answer in s⁻¹, number only, no unit symbol.

I am curious: what kcat value has been reported for FIXa-Y155F/N260S/R338E/T343R/R403E (protein) chain 1: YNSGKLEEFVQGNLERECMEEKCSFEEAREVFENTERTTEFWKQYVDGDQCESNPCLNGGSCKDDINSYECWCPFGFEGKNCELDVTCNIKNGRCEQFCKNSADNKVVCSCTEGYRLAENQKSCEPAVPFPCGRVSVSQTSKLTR chain 2: VVGGEDAKPGQFPWQVVLNGKVDAFCGGSIVNEKWIVTAAHCVETGVKITVVAGEHNIEETEHTEQKRNVIRIIPHHNYSAAINKYNHDIALLELDEPLVLNSYVTPICIADKEYTNIFLKFGSGYVSGWGRVFHKGRSALVLQYLRVPLVDRATCLESTKFRIYNNMFCAGFHEGGRDSCQGDSGGPHVTEVEGTSFLTGIISWGEECAMKGKYGIYTKVSEYVNWIKEKTKLT ?
6.4
